Target: Nuclear receptor subfamily 5 group A member 2 (Homo sapiens)
Assay: LRH-1 (NR5A2) inverse agonists, retest, confirmation, cell-based, luminescence (AID 651613);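 note: HEK293T cells co-transfected with LRH-1 and StAR promoter luciferase reporter; 0% = vehicle wells and 100% = parental cells lacking receptor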
Settings: cell-based LRH-1 luciferase reporter, inverse agonism; at 3.6 µM
The source made the active and inactive calls. Cut-off read from the data, not from the text of the source: active = inhibition above about 42%; inactive = the rest.
Outcomes: class 1 (active), class 0 (inactive)

# compound, answer_label
data = [
    ("O=C(CSc1ncnc2c1cnn2Cc1ccccc1)Nc1ccc2c(c1)OCCO2", "class 1"),
    ("Cc1onc(-c2ccccc2)c1C(=O)O/N=C(\\N)c1ccc([N+](=O)[O-])o1", "class 1"),
    ("Cc1nc2ccccc2n1/N=C/c1ccc([N+](=O)[O-])o1", "class 1"),
    ("Cc1cc(-c2nn3c(-c4ccccc4)nnc3s2)c2ccccc2n1", "class 0"),
    ("Cc1c(NC(=O)C(C)OC(=O)c2ccc([N+](=O)[O-])s2)c(=O)n(-c2ccccc2)n1C (stereo not drawn)", "class 0"),
    ("O=C(CCl)Nc1cccc(Oc2cnccn2)c1", "class 1"),
    ("CCOc1ccc(CCNC(=O)COC(=O)c2cc([N+](=O)[O-])ccc2N2CCOCC2)cc1OCC", "class 1"),
    ("Cc1sc(NC(=O)/C=C/c2ccc3c(c2)OCO3)nc1-c1ccccc1", "class 1"),
    ("COc1ccc(/C=C2/CSC/C(=C/c3ccc(OC)c(OC)c3)C2=O)cc1OC", "class 1"),
    ("CCN(CC)c1ccc(C(=C2C=CC(=[N+](CC)CC)C=C2)c2ccc(N(CC)CC)cc2)cc1", "class 1"),
    ("Cc1cc2oc(C(=O)NCc3ccncc3)c(C)c2cc1C", "class 0"),
    ("CC(C)(C)c1ccc(C2CC2C(=O)N/N=C\\c2ccc[nH]2)cc1 (stereo not drawn)", "class 1"),
    ("Cc1onc(-c2c(F)cccc2Cl)c1C(=O)c1ccccc1O", "class 1"),
    ("CCOc1cccc(/C=N/NC(=S)Nc2ccccc2[N+](=O)[O-])c1O", "class 0"),
    ("COc1ccc(CC2C(=O)NC(C)C(=O)N(C)C3Cc4ccc(cc4)Oc4cc(ccc4O)CC(C(=O)NC(C)C(=O)NC(C)C(=O)N2C)N(C)C3=O)cc1 (stereo not drawn)", "class 1"),
    ("CCCC(=O)NC(c1ccc(Cl)cc1)c1ccc2cccnc2c1O (stereo not drawn)", "class 1"),
    ("O=C(Nc1ccc([N+](=O)[O-])cc1)c1ccc(Cn2cc([N+](=O)[O-])cn2)cc1", "class 1"),
    ("COC(=O)c1c(NC(=O)c2cccc([N+](=O)[O-])c2)sc(C(N)=O)c1C", "class 1"),
    ("COc1ccc(OCCNC(=O)C2(C)CCN2Cc2ccc3ccccc3c2)cc1 (stereo not drawn)", "class 1"),
    ("O=C1CCc2cc(OCCCCc3nnnn3C3CCCCC3)ccc2N1", "class 1"),
    ("COc1ccc(CNc2ncnc3ccccc23)cc1", "class 1"),
    ("CC(NC(=O)CCl)c1ccccc1Br (stereo not drawn)", "class 1"),
    ("CC1(C)CC2CC(C)(CN2S(=O)(=O)c2ccc(C(=O)Nc3cccc(S(=O)(=O)N4CCOCC4)c3)cc2)C1 (stereo not drawn)", "class 1"),
    ("CCOc1ccc(NC(=O)COC(=O)C2CCC(=O)N2)c([N+](=O)[O-])c1 (stereo not drawn)", "class 1"),
    ("Clc1ccc2c(c1)-c1ccccc1C1=NCCN12", "class 1"),
    ("CCOc1ccc(S(=O)(=O)Nc2cc(OC)ccc2OC)cc1", "class 1"),
    ("O=C(COC(=O)CCN1C(=O)C2CC=CCC2C1=O)NCCc1ccc(F)cc1 (stereo not drawn)", "class 1"),
    ("Cc1ccc(CSC(Nc2ccc(F)cc2)=C(C#N)C#N)cc1", "class 1"),
    ("c1ccc(CNc2nc(-c3ccccn3)nc3ccccc23)cc1", "class 1"),
    ("Cc1cc(C)c(S(=O)(=O)/N=C2\\C=C(Nc3ccc(C(=O)O)cc3)C(=O)c3ccccc32)c(C)c1", "class 1"),
    ("Cc1ccc2[nH]c(C)c(/C=C/c3cc[n+](C)cc3)c2c1", "class 1"),
    ("CC(=O)Nc1ccc(-c2ccnc3c2CC(C(=O)NCc2ccco2)O3)cc1 (stereo not drawn)", "class 1"),
    ("Cc1cccc(CSC(Nc2ccc(F)cc2)=C(C#N)C#N)c1", "class 0"),
]
